Target desc: HLA-A*0201 (human, UniProt A*02:01)
Method notes: fluorescence polarization competition, test peptide at 100 uM against fluorescent-labeled peptide on HLA-A*0201; from Ymax, calibrated with irrelevant (0%) and relevant (100%) competitor
Recorded metric: % inhibition (%)

>  <Binder>
TYLELASAV [C35 peptide T38 to V46]

>  <% inhibition, %>
47.3

$$$$
>  <Binder>
SGVRIVVEY [C35 peptide S21 to Y29]

>  <% inhibition, %>
90.8

$$$$
>  <Binder>
FEIEINGQL [C35 peptide F65 to L73]

>  <% inhibition, %>
74.8

$$$$
>  <Binder>
SVAPPPEEV [C35 peptide S9 to V17]

>  <% inhibition, %>
96.9

$$$$

(A) GTGAFEIEI [C35 peptide G61 to I69]
(B) ITNSRPPCV [C35 peptide I105 to V113]
Incoming: Kindly identify which of A and B has the larger recorded % inhibition value. Reply with the label of the item you choose.
Outgoing: B
(B: 86.4%, A: 46.5%)
